Biological target: Cytochrome P450 2C19 (Homo sapiens)
Sequence (P33261 whole entry): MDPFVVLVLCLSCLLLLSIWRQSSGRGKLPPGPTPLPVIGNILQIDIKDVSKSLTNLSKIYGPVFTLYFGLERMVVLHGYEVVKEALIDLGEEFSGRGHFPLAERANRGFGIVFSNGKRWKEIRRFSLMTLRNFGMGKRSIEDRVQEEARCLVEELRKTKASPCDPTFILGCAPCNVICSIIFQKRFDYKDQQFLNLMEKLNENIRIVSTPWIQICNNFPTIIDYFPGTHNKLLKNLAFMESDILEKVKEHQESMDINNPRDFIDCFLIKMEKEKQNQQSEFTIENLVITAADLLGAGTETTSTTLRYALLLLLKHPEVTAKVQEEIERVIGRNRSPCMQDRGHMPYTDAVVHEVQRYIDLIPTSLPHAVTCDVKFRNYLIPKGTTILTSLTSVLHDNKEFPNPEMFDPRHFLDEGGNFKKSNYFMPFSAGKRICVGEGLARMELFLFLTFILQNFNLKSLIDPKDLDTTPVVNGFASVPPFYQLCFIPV
Test: Cytochrome panel assay with activity outcomes. Panel member name: p450-cyp2c19 Compounds with AC50 equal or less than 10 uM are considered active
Assay type: functional
Conditions: read-out: AC50
READOUT_TYPE: AC50

Sample records with AC50:
Cc1ccc(-n2[nH]c(=O)c3cccnc32)cc1; 25.1 µM (inconclusive)
Cc1cc(N)n(-c2ccccc2)n1; 2.24 µM (inconclusive)
O=C(Oc1cccc(Br)c1)c1cccnc1; 39.8 µM (inconclusive)
O=c1c(-c2ccccc2)nc2cnc(Oc3ccccc3)nc2n1C1CC1; 25.1 µM (inconclusive)
CCC(=O)OCN1C(=O)C=CC1=O; 0.002 µM (inconclusive)

Input line: Suppose we examine the molecule CC1(C)CC(=O)C(CCC(=O)c2ccccc2)C(C)(C)N1 (configuration not stated) ; what AC50 value has been reported?
Output line: 28.2 µM (inconclusive)

Input line: Data request, read-out AC50, for CC(=O)NC1(c2cccc(F)c2)CCN(CC(=O)NC(C)C)CC1
Output line: 39.8 µM (inconclusive)

Input line: Which AC50 value belongs to O=C(Nc1cccc2[nH]ncc12)c1ccc(F)cc1 ?
Output line: 14.1 µM (inconclusive)
